Tested on: UACC-257 melanoma
Experimental Details: NCI tumour cell line growth inhibition, 48 h
Metric Name: GI50

# Molecule, Subject Of Test, GI50
rows = [
    ("CCn1c(-c2nonc2N)nc2c(C#CC(C)(C)O)nc(CN3CCCC3)cc21", "UACC-257 melanoma", "> 25 µM"),
    ("CS(=O)(=O)CCN(CC#N)Cc1ccc(-c2ccc3ncnc(Nc4ccc(OCc5cccc(F)c5)c(Cl)c4)c3c2)o1", "UACC-257 melanoma", "> 25 µM"),
    ("O=C(NCCCN1CCC(N2CCCCC2)CC1)C1=Cc2cc(Br)ccc2OC1", "UACC-257 melanoma", "1.9 µM"),
    ("O=C(/C=C/c1cccs1)c1ccc(Cl)cc1Cl", "UACC-257 melanoma", "16.6 µM"),
]

Here is the next item to consider.
Q: Consider the molecule shown here: C/C(=C1\SC(=NCc2cccs2)NC1=O)c1ccc2ncccc2c1 What is its recorded GI50?
Result: > 25 µM

====

Here the recorded TGI is given for each entry.
Tested on: ACHN renal
Experimental Details: NCI tumour cell line growth inhibition, 48 h

# Compound, Metric Name, Observed Value
rows = [
    ("COc1cc(C2S/C(=C/c3ccccc3)C(=O)N2c2cccc(Cl)c2)cc(OC)c1OC (stereo unspecified)", "TGI", "> 100 µM"),
    ("O=c1oc2ccc(Br)cc2c(=O)n1-c1ccc(Br)cc1F", "TGI", "8.46 µM"),
    ("Cc1nc(-c2nc(C)c(C(=O)/C=C/c3ccc([N+](=O)[O-])cc3)s2)sc1C(=O)/C=C/c1ccc([N+](=O)[O-])cc1", "TGI", "> 100 µM"),
]

Q: Fill in: TGI of CC(C)C1(Cl)CCC2C3(C)CCCC(C)(C(=O)O)C3CC(Cl)C2(Cl)C1Cl (stereo unspecified) is ___
Result: > 100 µM

Q: What value of measured TGI is listed for CC(C)(Oc1ccc(Cl)cc1)C(=O)N(C(=O)N1CCN(c2ccccc2)CC1)c1ccccc1 ?
Result: > 100 µM

Q: Which TGI value belongs to O=C(/C=C/c1cccs1)c1ccc(Cl)cc1Cl ?
Result: 31.3 µM

Q: Request the reported TGI associated with NC(N)=N/N=C\c1ccc(C2CCNCC2)cc1
Result: > 100 µM

Q: Any idea what its TGI is? The compound is C[C@]12CCC3c4ccc(O)cc4CC[C@H]3C1CC(=O)NC2=O (stereo partly specified)
Result: > 10 µM

Q: // returns reported TGI for input CCNCC(O)COc1ccc2c(c1)[n+]([O-])nc(N)[n+]2[O-] (stereo unspecified)
Result: > 100 µM

Q: Can you look up the measured TGI of N#C/C(=C/NC(=S)NCc1ccccc1)C(N)=O for me?
Result: > 100 µM

Q: Need TGI of CC(C)NC(=O)OCc1c(COC(=O)NC(C)C)c(-c2ccc[n+](COC(=O)C(C)C)c2)n2c1CCC2 , thanks.
Result: > 100 µM

Q: Which value of TGI has been reported for CC(=O)c1c2c(cc3c1CC1(Cc4cc5c(cc4C1)CCCC5)C3)CCCC2 in the records?
Result: 38.8 µM

Q: What does the record list as TGI for COC(=O)CN1Cc2cc(C)cc(c2O)CN(CC(=O)OC)Cc2cc(C)cc(c2O)CN(CC(=O)OC)Cc2cc(C)cc(c2O)C1 ?
Result: > 100 µM

Q: What value of TGI has been recorded for this entry: O=C1C(N2CCOCC2)=C(Cl)C(=O)c2ncccc21
Result: 3.49 µM
